In this section we review reported aptazyme ON/OFF ratio values for a set of variants.
B1: Pistol ribozyme (parent)
chain: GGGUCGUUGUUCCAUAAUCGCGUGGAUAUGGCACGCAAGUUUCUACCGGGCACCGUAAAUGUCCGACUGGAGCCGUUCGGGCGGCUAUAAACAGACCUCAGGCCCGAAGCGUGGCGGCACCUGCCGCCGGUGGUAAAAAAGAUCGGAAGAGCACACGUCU

variants of: B1; assay: aptazyme ON/OFF ratio, guanine; higher = stronger switching; co-transcriptional cleavage with and without guanine
In your answer, state the number alone without any accompanying words.

Take a look at these entries with their results.
U7G U8A G9A U10C U11A C12U C13G | 1.03
U8G G9C U10A U11C C13U | 1.03

get_value(item= U7A U8G G9U U10G U11G C12U C13U , readout=aptazyme ON/OFF ratio) returns 1.21

get_value(item= U7C G9A U10A U11C C12G C13G , readout=aptazyme ON/OFF ratio) returns 1.46

get_value(item= U7G U8G G9C U10A U11A C12U C13U , readout=aptazyme ON/OFF ratio) returns 1.02
